B1: E3 ubiquitin-protein ligase TRIM36, residues 208 to 252; numbered along this chain, Q9NQ86 (parent)
chain: KILMCPEHETERINMYCELCRRPVCHLCKLGGNHANHRVTTMSSA

variants of: B1; assay: abundance fitness (aPCA) (normalised: wild type 0, dead -1); higher = more abundant; growth selection in yeast, the domain comes from the species named; conditions: Homo sapiens
observed_property: abundance fitness

KILMCPEHETERINMYCELCRRPVCHLCKLGQNHANHRVTTMSSA [G32Q] :: -0.036
KILMCPEHETERINMYCELCRRPVMHLCKLGGNHANHRVTTMSSA [C25M] :: -0.618
KILMCPEHETERINMYCELCVRPVCHLCKLGGNHANHRVTTMSSA [R21V] :: 0.01
KILMCPEHETERINMYCELCRRPVCGLCKLGGNHANHRVTTMSSA [H26G] :: 0.049
KILMCPEHETERINMYCELCRRPVCHLCDLGGNHANHRVTTMSSA [K29D] :: 0.126
KILMCPEHETERINMYCELCRRMVCHLCKLGGNHANHRVTTMSSA [P23M] :: -0.189
KILMCPEHETERINMYCELCRRPVCHWCKLGGNHANHRVTTMSSA [L27W] :: -0.223
KILMCPEHETERINMYCCLCRRPVCHLCKLGGNHANHRVTTMSSA [E18C] :: -0.209
KILMCPEHETERINMYCELCRRPVCHLCKLGGLHANHRVTTMSSA [N33L] :: -0.028
KILMCPEHETERINMYCELLRRPVCHLCKLGGNHANHRVTTMSSA [C20L] :: -0.591
KILMCPEHETERINMYCELCRRPVCHLRKLGGNHANHRVTTMSSA [C28R] :: -0.637
KILMCPEHETERINMYCELCRRPVCHLCKMGGNHANHRVTTMSSA [L30M] :: -0.041
KILMCPEHETERINMYCELCRRPVCHLCKPGGNHANHRVTTMSSA [L30P] :: 0.005
KILMCPEHETERINMYCELCRREVCHLCKLGGNHANHRVTTMSSA [P23E] :: 0.037
KILMCPEHETERINMYCELCRRRVCHLCKLGGNHANHRVTTMSSA [P23R] :: -0.148
KILMCPEHETERINMYCELCRRPVCHLCKLGGHHANHRVTTMSSA [N33H] :: -0.046
KILMCPEHETERINMYCELCRRPECHLCKLGGNHANHRVTTMSSA [V24E] :: -0.293
KILMCPEHETERINMYTELCRRPVCHLCKLGGNHANHRVTTMSSA [C17T] :: -0.796
KILMCPEHETERINMYCELCRRPVCHLEKLGGNHANHRVTTMSSA [C28E] :: -0.275
KILMCPEHETERINMYCELCRRPVCHLCKLGGIHANHRVTTMSSA [N33I] :: -0.064
KILMCPEHETERINMYCELCRRPVCHLCKLGGNCANHRVTTMSSA [H34C] :: 0.033
KILMCPEHETERINMYCELCRAPVCHLCKLGGNHANHRVTTMSSA [R22A] :: 0.01
